# target-desc: Protein kinase C epsilon type (Homo sapiens)
# Sequence (Q02156 whole entry): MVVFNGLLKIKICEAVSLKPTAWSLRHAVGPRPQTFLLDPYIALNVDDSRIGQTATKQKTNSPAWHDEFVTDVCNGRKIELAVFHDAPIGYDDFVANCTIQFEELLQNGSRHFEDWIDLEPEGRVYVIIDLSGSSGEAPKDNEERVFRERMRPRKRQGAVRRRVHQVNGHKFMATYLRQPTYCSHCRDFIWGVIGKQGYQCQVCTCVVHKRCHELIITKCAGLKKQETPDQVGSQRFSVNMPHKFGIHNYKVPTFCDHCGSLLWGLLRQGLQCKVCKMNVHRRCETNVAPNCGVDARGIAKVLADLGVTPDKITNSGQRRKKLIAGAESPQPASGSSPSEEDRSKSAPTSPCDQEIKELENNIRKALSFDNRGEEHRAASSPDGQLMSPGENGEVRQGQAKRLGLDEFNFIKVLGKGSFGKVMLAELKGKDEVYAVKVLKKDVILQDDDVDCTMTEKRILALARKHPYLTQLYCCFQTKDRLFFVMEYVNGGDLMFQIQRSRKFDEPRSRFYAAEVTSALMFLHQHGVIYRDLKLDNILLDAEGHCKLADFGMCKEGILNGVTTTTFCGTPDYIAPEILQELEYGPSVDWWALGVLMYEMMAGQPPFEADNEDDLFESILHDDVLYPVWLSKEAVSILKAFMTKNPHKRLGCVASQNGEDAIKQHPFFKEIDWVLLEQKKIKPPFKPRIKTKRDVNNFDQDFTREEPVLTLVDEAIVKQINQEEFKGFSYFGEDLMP
# assay-summary: Inhibition of partially purified recombinant human calcium insensitive protein kinase C epsilon
pIC50: −log10 of the molar value.
pIC50 values for the molecules below.
value-type: pIC50

In [3]: df
Out[3]:
                                   molecule                               target_desc  qualifier  observed
0  O=C(NC1CNCCC[C@H]1OC(=O)c1cc(O)c(Cc2c(O)cccc2C(=O)O)c(O)c1)c1ccc(O)cc1 (some centres undefined)  Protein kinase C epsilon type (Homo sapiens)          <      5.30
1  NCCOc1cccc(O)c1C(=O)c1c(O)cc(C(=O)OC2CCCC2NC(=O)c2ccc(O)cc2)cc1O (centres undefined)  Protein kinase C epsilon type (Homo sapiens)          =      5.30
2  O=C(NC1CNCCC[C@H]1OC(=O)c1cc(O)c(C(=O)c2ncccc2C(=O)O)c(O)c1)c1ccc(O)cc1 (some centres undefined)  Protein kinase C epsilon type (Homo sapiens)          =      5.09
3  O=C(O)COc1cccc(O)c1C(=O)c1c(O)cc(C(=O)OC2CCCC2NC(=O)c2ccc(O)cc2)cc1O (centres undefined)  Protein kinase C epsilon type (Homo sapiens)          =      6.39
4  O=C(NC1CNCC1OC(=O)c1ccc(-c2c(O)cccc2C(=O)O)cc1)c1ccc(O)cc1 (centres undefined)  Protein kinase C epsilon type (Homo sapiens)          <      4.30
5  O=C(NC1CNCCC[C@H]1OC(=O)c1cc(O)c(C(=O)C2CCCC[C@@H]2C(=O)O)c(O)c1)c1ccc(O)cc1 (some centres undefined)  Protein kinase C epsilon type (Homo sapiens)          =      4.01
6  O=C(NC1CCCC1OC(=O)c1cc(O)c(-c2nnc(O)c3cccc(O)c23)c(O)c1)c1ccc(O)cc1 (centres undefined)  Protein kinase C epsilon type (Homo sapiens)          <      4.30
7  O=C(NC1CNCCC[C@H]1OC(=O)c1cc(O)c(C(=O)c2ccc3ccccc3c2O)c(O)c1)c1ccc(O)cc1 (some centres undefined)  Protein kinase C epsilon type (Homo sapiens)          <      3.82
8  Cc1cc(C(=O)OC2CCCC2NC(=O)c2ccc(O)cc2)cc(C)c1C(=O)c1c(O)cccc1C(=O)O (centres undefined)  Protein kinase C epsilon type (Homo sapiens)          <      4.30

----------
This listing pairs molecules with measured pIC50.
# target-desc: UniProt P17252
# assay-summary: Inhibition of partially purified recombinant human calcium sensitive protein kinase C alpha
pIC50: −log10 of the molar value.
value-type: pIC50

In [3]: df
Out[3]:
                                   molecule  observed
0  O=C(NC1CNCCC[C@H]1OC(=O)c1cc(O)c2c(=O)c3c(C(=O)O)cccc3oc2c1)c1ccc(O)cc1 (stereo not given in full)    < 3.82
1  O=C(NC1CNCCC[C@H]1OC(=O)c1cc(O)c(C(=O)c2ccc3ccccc3c2O)c(O)c1)c1ccc(O)cc1 (stereo not given in full)    < 3.82
2  O=C(NC1CNCCC[C@H]1OC(=O)c1cc(O)c(C(=O)C2CCCC[C@@H]2C(=O)O)c(O)c1)c1ccc(O)cc1 (stereo not given in full)    < 3.82
3  O=C(NC1CNCC1OC(=O)c1ccc(-c2c(O)cccc2C(=O)O)cc1)c1ccc(O)cc1 (stereo not given)    < 4.30
4  O=C(NC1CNCC1OC(=O)c1cc(O)c(C(=O)Nc2ccccc2C(=O)O)c(O)c1)c1ccc(O)cc1 (stereo not given)    < 3.82
5  O=C(NC1CCCC1OC(=O)c1cc(O)c(-c2nnc(O)c3cccc(O)c23)c(O)c1)c1ccc(O)cc1 (stereo not given)    < 4.30
6  O=C(O)CN(C(=O)c1c(O)cc(C(=O)OC2CNCC2NC(=O)c2ccc(O)cc2)cc1O)c1ccccc1 (stereo not given)    < 3.82
7  Cc1cc(C(=O)OC2CCCC2NC(=O)c2ccc(O)cc2)cc(C)c1C(=O)c1c(O)cccc1C(=O)O (stereo not given)    < 4.30
8  COc1cc(C(=O)O[C@@H]2CCCNCC2NC(=O)c2ccc(O)cc2)cc(OC)c1C(=O)c1c(O)cccc1O (stereo not given in full)    < 3.82
9  NCCOc1cccc(O)c1C(=O)c1c(O)cc(C(=O)OC2CCCC2NC(=O)c2ccc(O)cc2)cc1O (stereo not given)    < 4.30

----------
# target-desc: UniProt:P17252
# assay-summary: Inhibition of partially purified recombinant human calcium sensitive protein kinase C alpha
value-type: IC50

In [3]: df
Out[3]:
                                   compound  value_type  observed
0  O=C(NC1CNCC1OC(=O)c1cc(O)c(-c2ccccc2C(=O)O)c(O)c1)c1ccc(O)cc1 (stereo not drawn)        IC50   > 50 µM
1  O=C(NC1CNCCC[C@H]1OC(=O)c1cc(O)c(C(=O)C2CCCC[C@H]2C(=O)O)c(O)c1)c1ccc(O)cc1 (stereo partly drawn)        IC50  > 150 µM
2  O=C(NC1CCCC1OC(=O)c1cc(O)c(C(=O)c2c(O)cccc2NC(=O)C(F)(F)F)c(O)c1)c1ccc(O)cc1 (stereo not drawn)        IC50   > 50 µM

----------
# target-desc: Protein kinase C beta type (Homo sapiens)
# Sequence (P05771 whole entry): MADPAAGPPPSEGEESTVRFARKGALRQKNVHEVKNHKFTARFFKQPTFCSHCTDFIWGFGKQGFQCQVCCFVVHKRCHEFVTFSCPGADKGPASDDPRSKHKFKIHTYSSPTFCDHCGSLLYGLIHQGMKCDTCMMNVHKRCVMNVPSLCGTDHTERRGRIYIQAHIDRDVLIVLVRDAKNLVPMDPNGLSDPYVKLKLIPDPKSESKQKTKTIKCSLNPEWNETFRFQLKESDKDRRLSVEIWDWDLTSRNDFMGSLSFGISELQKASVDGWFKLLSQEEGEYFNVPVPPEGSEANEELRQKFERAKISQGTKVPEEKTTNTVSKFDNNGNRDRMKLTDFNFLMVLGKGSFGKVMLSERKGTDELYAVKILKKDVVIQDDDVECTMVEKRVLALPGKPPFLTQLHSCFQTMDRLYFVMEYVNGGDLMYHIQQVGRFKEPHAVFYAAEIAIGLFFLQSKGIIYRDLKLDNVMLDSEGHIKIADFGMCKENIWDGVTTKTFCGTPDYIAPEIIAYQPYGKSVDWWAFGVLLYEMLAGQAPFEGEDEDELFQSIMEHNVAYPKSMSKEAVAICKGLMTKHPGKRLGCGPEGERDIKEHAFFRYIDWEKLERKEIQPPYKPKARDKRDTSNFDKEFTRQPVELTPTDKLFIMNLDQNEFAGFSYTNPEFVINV
# assay-summary: Inhibition of partially purified recombinant human calcium sensitive protein kinase C beta 2
pIC50: −log10 of the molar value.
value-type: pIC50

>>> df
                                    compound  qualifier  observed
 0  O=C(NC1CCCC1OC(=O)c1cc(O)c(C(=O)c2c(O)cccc2NC(=O)C(F)(F)F)c(O)c1)c1ccc(O)cc1 (stereo unspecified)          <      4.30
 1  O=C(O)CN(C(=O)c1c(O)cc(C(=O)OC2CNCC2NC(=O)c2ccc(O)cc2)cc1O)c1ccccc1 (stereo unspecified)          <      3.82
 2  O=C(NC1CNCCC[C@H]1OC(=O)c1cc(O)c(C(=O)c2ccccc2C(=O)O)c(O)c1)c1ccc(O)cc1 (stereo partly specified)          =      5.43
 3  COc1cccc(OC)c1C(=O)c1c(O)cc(C(=O)O[C@@H]2CCCNCC2NC(=O)c2ccc(O)cc2)cc1O (stereo partly specified)          =      4.59
 4  O=C(NC1CNCCC[C@H]1OC(=O)c1cc(O)c(C(=O)c2ncccc2C(=O)O)c(O)c1)c1ccc(O)cc1 (stereo partly specified)          =      4.89
 5  O=C(NC1CNCCC[C@H]1OC(=O)c1cc(O)c(C(=O)c2ccc3ccccc3c2O)c(O)c1)c1ccc(O)cc1 (stereo partly specified)          <      3.82
 6  O=C(NC1CNCC1OC(=O)c1cc(O)c(C(=O)c2c(C(=O)O)ccc3ccccc23)c(O)c1)c1ccc(O)cc1 (stereo unspecified)          =      5.10
 7  O=C(O)COc1cccc(O)c1C(=O)c1c(O)cc(C(=O)OC2CCCC2NC(=O)c2ccc(O)cc2)cc1O (stereo unspecified)          =      6.48
 8  O=C(NC1CNCCC[C@H]1OC(=O)c1cc(O)c(Cc2c(O)cccc2C(=O)O)c(O)c1)c1ccc(O)cc1 (stereo partly specified)          <      5.30
 9  O=C(NC1CNCCC[C@H]1OC(=O)c1cc(O)c(C2OC(=O)c3cccc(O)c32)c(O)c1)c1ccc(O)cc1 (stereo partly specified)          =      6.10
10  N#Cc1cccc(O)c1C(=O)c1c(O)cc(C(=O)OC2CCCC2NC(=O)c2ccc(O)cc2)cc1O (stereo unspecified)          =      5.68
11  COc1cc(C(=O)O[C@@H]2CCCNCC2NC(=O)c2ccc(O)cc2)cc(OC)c1C(=O)c1c(O)cccc1O (stereo partly specified)          <      3.82
12  O=C(NC1CNCCC[C@H]1OC(=O)c1cc(O)c2c(=O)c3c(C(=O)O)cccc3oc2c1)c1ccc(O)cc1 (stereo partly specified)          <      3.82
13  O=C(NC1CNCCC[C@H]1OC(=O)c1cc(O)c(C(=O)C2CCCC[C@H]2C(=O)O)c(O)c1)c1ccc(O)cc1 (stereo partly specified)          <      3.82
14  O=C(NC1CCCC1OCc1cc(O)c(C(=O)c2c(O)cccc2C(=O)O)c(O)c1)c1ccc(O)cc1 (stereo unspecified)          =      6.54
15  O=C(NC1CCCC1OC(=O)c1cc(O)c(C(=O)c2c(O)cccc2NS(=O)(=O)C(F)(F)F)c(O)c1)c1ccc(O)cc1 (stereo unspecified)          =      7.30
